Hey, just so you know, these numbers are from patent US20170247475A1.

Target: T1, recombinant human VEGF165 (human, UniProt P15692-4 27-191)
T1 construct: also called hVEGF165; rhVEGF165
T1 sequence (P15692 other isoform, or with tags, fused parts or gaps limits assumed): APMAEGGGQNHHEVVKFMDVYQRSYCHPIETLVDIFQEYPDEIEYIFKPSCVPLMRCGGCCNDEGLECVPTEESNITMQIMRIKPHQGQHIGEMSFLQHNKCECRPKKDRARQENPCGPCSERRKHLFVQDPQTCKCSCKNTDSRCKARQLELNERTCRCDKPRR
Test: Biacore, periplasmic extract on hVEGF165 chip
Give Binding level (RU) for every item shown.
Give bare numbers, in RU.

binder	Binding level (RU)
VEGFBII23F05 (VHH, periplasmic extract) VHH: EVQLVESGGGLVQAGDSLRLSCAASGRTFSSYSMGWFRQAQGKEREFVVAISSSGNYKYDSVSLEGRFTISRDNTKNTVYLQINSLKPKDTAVYYCAASRAYGSSRLRLGDTYDYWGQGTQVTVSS	198
VEGFBII41B05 (VHH, periplasmic extract) VHH: EVQLVESGGGLVQPGGSLRLSCAFSGRTFSSYSMGWFRQAQGKEREFVVAISSGGFIYDAVSLEGRFTISRDNTKNTVYLQTPSLKPEDTAVYYCAASRAYGSSRLRLADTYDYWGQGTQVTVSS	324
VEGFBII39E02 (VHH, periplasmic extract) VHH: EVQLVESGGGLVQPGDPLKLSCAFSGRTFSSYSMGWFRQAQGKEREFVVAISSSGGYIYDSVSLEGRFTISRDNTKNTVYLQTPSLKPEDTADYYCAASRAYGSSRLRLADTYDYWGQGTQVTVSS	181

For every item below, please supply its Binding level (RU).
1. VEGFBII31C07 (VHH, periplasmic extract) VHH: EVQLVESGGGLVQTGDSLRLSCAASGGTFSSYSMGWFRQAQGKEREFVVAISSSGGYIYDSVSLEGRFTISRDNTKNTVYLQTPSLKPEDTADYYCAASRAYGSSRLRLADTYDYWGQGTQVTVSS
2. VEGFBII41G03 (VHH, periplasmic extract) VHH: EVQLVESGGGLVQPGDSLKLSCAFSGRTFSSYSMAWFRQAQGKEREFVVAISSGGFIYDAVSLEGRFTISRENTKNTVYLQTPSLKPEDTAVYYCAASRAYGSSRLRLADTYDYWGQGTQVTVSS
3. VEGFBII23B04 (VHH, also called VEGFBII23B4; VEGFBII23B04 (wt)) VHH: EVQLVESGGGLVQTGDSLRLSCEVSGRTFSSYSMGWFRQAQGKEREFVVAISKGGYKYDSVSLEGRFTISKDNAKNTVYLQINSLKPEDTAVYYCASSRAYGSSRLRLADTYEYWGQGTQVTVSS

stdout:
1. 77
2. 332
3. 768

For every item below, please supply its Binding level (RU).
1. VEGFBII62F02 (VHH, periplasmic extract) VHH: EVQLVESGGGLVQPGDSLKLSCAFSGRTFSSYSMGWFRQAQGKEREFVVAIASGGYIYDAVSLEGRFTISRDNTKDTVYLQTPSLKPEDTAVYYCAASRAYGSSRLRLADTYDYWGQGTQVTVSS
2. VEGFBII30E07 (VHH, periplasmic extract) VHH: EVQLVESGGGLVQAGDSLRLSCAASGRTFSSYSMGWFRQAQGKEREFVVAISSSGNYKYDSVSLEGRFTISRDNTKNTVYLQINSLKPEDTAVYYCAASRAYGSSRLRLGDTYDYWGQGTRVTVSS

stdout:
[205, 226]
